test: Vero cell proliferation; format: cell-based; conditions: monkey, vero cells; read-out: IC50 (Vero cell proliferation)
outcome measure: CC50 (µg/mL)
Write the value in µg/mL as a bare number.

Output measured CC50 for this item: CC1=C(CCO)C(=O)C(O)=C2C1=CC(=O)[C@@H]1C(C)(C)CCC[C@@]21C (relative stereo) [Formula (i)] 12.7

###

system: C. albicans; assay: Inhibition of Candida spp. culture (broth microdilution, XTT); assay type: cell-based, Candida albicans (strain ATCC #90028); conditions: assay validation, result in words
outcome measure: minimum inhibitory concentration (MIC) for known antifungal agents

Here's what some known entries look like.
• NC(=O)OC[C@H](O)[C@@H](O)[C@H](N)C(=O)N[C@H](C(=O)O)[C@H]1O[C@@H](n2cc(C(=O)O)c(=O)[nH]c2=O)[C@H](O)[C@@H]1O = within reported ranges
• Nc1nc(=O)[nH]cc1F = within reported ranges
• C[C@@H]([C@H](N)C(=O)N[C@H](C(=O)O)[C@H]1O[C@@H](n2ccc(=O)[nH]c2=O)[C@H](O)[C@@H]1O)[C@H](O)c1ccc(O)cn1 = within reported ranges
• OC(Cn1cncn1)(Cn1cncn1)c1ccc(F)cc1F = within reported ranges

Provide only the value of recorded minimum inhibitory concentration (MIC) for known antifungal agents for C[C@@H]1[C@H](O)[C@@H](C)/C=C/C=C/C=C/C=C/C=C/C=C/C=C/[C@H](O[C@@H]2O[C@H](C)[C@@H](O)[C@H](N)[C@@H]2O)C[C@@H]2O[C@](O)(C[C@@H](O)C[C@@H](O)[C@H](O)CC[C@@H](O)C[C@@H](O)CC(=O)O[C@H]1C)C[C@H](O)[C@H]2C(=O)O within reported ranges
